Data provenance is paper PMC9866728.

# test-name: Recovery over time from exposure to cell culture media without cells (GC-MS/MS)
# Assay type: physicochemical
# protocol-conditions: Solvent Extract (DMSO, 15 ng/mL each PAH); one phase decay fit of nominal recovery

>  <compound>
c1ccc2c(c1)cc1ccc3cccc4ccc2c1c34 [Benzo[a]pyrene]

>  <Y0>
15.28

$$$$
>  <compound>
c1ccc2cc3c(cc2c1)-c1cccc2cccc-3c12 [Benzo[k]fluoranthene]

>  <Y0>
15.74

$$$$
>  <compound>
c1ccc2c(c1)-c1cccc3cccc-2c13

>  <Y0>
14.59

$$$$
>  <compound>
c1ccc2cc3ccccc3cc2c1

>  <Y0>
14.66

$$$$
>  <compound>
c1ccc2ccccc2c1

>  <Y0>
14.8

$$$$
>  <compound>
Cc1cccc2ccccc12

>  <Y0>
14.94

$$$$

====

# test-name: Recovery over time from exposure to cell culture media without cells (GC-MS/MS)
# Assay type: physicochemical
# protocol-conditions: O-Rings (loaded in 10 µg/mL PAH solution); one phase association fit of nominal recovery
measured-property: Y0

>  <compound>
c1ccc2cc3ccccc3cc2c1 [Anthracene]

>  <value>
-0.1844

$$$$
>  <compound>
c1ccc2c(c1)ccc1ccccc12 [Phenanthrene]

>  <value>
-0.1954

$$$$
>  <compound>
c1ccc2ccccc2c1 [Naphthalene]

>  <value>
-0.1564

$$$$
>  <compound>
C1=Cc2cccc3cccc1c23 [Acenaphthylene]

>  <value>
-0.08033

$$$$
>  <compound>
c1ccc2cc3c(cc2c1)-c1cccc2cccc-3c12 [Benzo[k]fluoranthene]

>  <value>
0.005418

$$$$
>  <compound>
c1ccc2c(c1)cc1ccc3cccc4ccc2c1c34 [Benzo[a]pyrene]

>  <value>
0.02292

$$$$
>  <compound>
Cc1cccc2ccccc12 [1-Methylnaphthalene]

>  <value>
-0.0496

$$$$
>  <compound>
c1ccc2c(c1)Cc1ccccc1-2 [Fluorene]

>  <value>
-0.4812

$$$$
>  <compound>
c1ccc2c(c1)-c1cccc3cccc-2c13 [Fluoranthene]

>  <value>
-0.1202

$$$$
>  <compound>
c1cc2c3c(cccc3c1)CC2 [Acenaphthene]

>  <value>
-0.03588

$$$$

====

# test-name: Loading kinetics of silicone micro-O-rings from methanol PAH solution (GC-MS/MS)
# Format: physicochemical
yes means recorded Span Value is 0.2 or above; no means it is below 0.2.

>  <compound>
c1ccc2cc3c(ccc4ccccc43)cc2c1 [Benzo[a]anthracene]

>  <class>
no

$$$$
>  <compound>
c1cc2cccc3c4cccc5cccc(c(c1)c23)c54

>  <class>
no

$$$$
>  <compound>
c1ccc2c(c1)-c1cccc3c1c-2cc1ccccc13 [Benzo[b]fluoranthene]

>  <class>
no

$$$$
>  <compound>
Cc1ccc2ccccc2c1

>  <class>
yes

$$$$
>  <compound>
c1ccc2c(c1)ccc1c3ccccc3ccc21

>  <class>
no

$$$$

====

# test-name: Loading kinetics of silicone micro-O-rings from methanol PAH solution (GC-MS/MS)
# Format: physicochemical
# protocol-conditions: one-phase association fit of nominal Csilicone; 10 µg/mL PAH mix in methanol, 0-24 h
This section presents compounds with their documented Y0 values.

>  <smi>
c1cc2c3c(cccc3c1)CC2

>  <Y0>
0

$$$$
>  <smi>
c1ccc2ccccc2c1

>  <Y0>
0

$$$$
>  <smi>
c1ccc2cc3ccccc3cc2c1

>  <Y0>
0

$$$$
>  <smi>
C1=Cc2cccc3cccc1c23

>  <Y0>
0

$$$$
>  <smi>
c1ccc2c(c1)-c1cccc3cccc-2c13

>  <Y0>
0

$$$$
>  <smi>
Cc1cccc2ccccc12

>  <Y0>
0

$$$$

====

# test-name: Recovery over time from exposure to cell culture media without cells (GC-MS/MS)
# Format: physicochemical
# protocol-conditions: MAF (400 ng/mL each PAH); one phase decay fit of nominal recovery

>  <compound>
c1cc2c3c(cccc3c1)CC2 [Acenaphthene]

>  <Y0>
398.6

$$$$
>  <compound>
c1ccc2cc3c(cc2c1)-c1cccc2cccc-3c12 [Benzo[k]fluoranthene]

>  <Y0>
386

$$$$
>  <compound>
c1ccc2ccccc2c1 [Naphthalene]

>  <Y0>
399.7

$$$$
>  <compound>
c1ccc2c(c1)-c1cccc3cccc-2c13 [Fluoranthene]

>  <Y0>
391.9

$$$$
>  <compound>
c1ccc2cc3ccccc3cc2c1 [Anthracene]

>  <Y0>
398.5

$$$$
>  <compound>
c1ccc2c(c1)ccc1ccccc12 [Phenanthrene]

>  <Y0>
398.5

$$$$

====

This section presents compounds with their documented Y0 values.
# test-name: Recovery over time from exposure to cell culture media without cells (GC-MS/MS)
# Type: physicochemical
# protocol-conditions: MAF (400 ng/mL each PAH); one phase decay fit of nominal recovery

>  <compound>
C1=Cc2cccc3cccc1c23

>  <Y0>
399.1

$$$$
>  <compound>
c1ccc2c(c1)Cc1ccccc1-2

>  <Y0>
397.4

$$$$
>  <compound>
c1ccc2c(c1)cc1ccc3cccc4ccc2c1c34 [Benzo[a]pyrene]

>  <Y0>
391.4

$$$$
>  <compound>
Cc1cccc2ccccc12

>  <Y0>
399.6

$$$$

====

# test-name: Loading kinetics of silicone micro-O-rings from methanol PAH solution (GC-MS/MS)
# Assay type: physicochemical
# protocol-conditions: one-phase association fit of nominal Csilicone (µg/mL per Eq 1); 10 µg/mL PAH mix in methanol
fulfilled means recorded Plateau Value is 0.3 or above; not fulfilled means it is below 0.3.

>  <compound>
Cc1cccc2ccccc12 [1-Methylnaphthalene]

>  <class>
fulfilled

$$$$
>  <compound>
c1ccc2c(c1)-c1cccc3cccc-2c13 [Fluoranthene]

>  <class>
fulfilled

$$$$
>  <compound>
c1ccc2ccccc2c1 [Naphthalene]

>  <class>
fulfilled

$$$$
>  <compound>
c1ccc2c(c1)ccc1ccccc12 [Phenanthrene]

>  <class>
not fulfilled

$$$$
>  <compound>
C1=Cc2cccc3cccc1c23 [Acenaphthylene]

>  <class>
fulfilled

$$$$
>  <compound>
c1ccc2cc3ccccc3cc2c1 [Anthracene]

>  <class>
not fulfilled

$$$$
>  <compound>
c1ccc2cc3c(cc2c1)-c1cccc2cccc-3c12 [Benzo[k]fluoranthene]

>  <class>
not fulfilled

$$$$
>  <compound>
c1cc2c3c(cccc3c1)CC2 [Acenaphthene]

>  <class>
fulfilled

$$$$
>  <compound>
c1ccc2c(c1)cc1ccc3cccc4ccc2c1c34 [Benzo[a]pyrene]

>  <class>
not fulfilled

$$$$
>  <compound>
c1ccc2c(c1)Cc1ccccc1-2 [Fluorene]

>  <class>
fulfilled

$$$$

====

# test-name: Recovery over time from exposure to cell culture media without cells (GC-MS/MS)
# Assay type: physicochemical
# protocol-conditions: MAF; one phase decay fit

>  <compound>
Cc1cccc2ccccc12 [1-Methylnaphthalene]

>  <Span>
362.5

$$$$
>  <compound>
c1ccc2c(c1)ccc1ccccc12 [Phenanthrene]

>  <Span>
349.6

$$$$
>  <compound>
c1ccc2c(c1)Cc1ccccc1-2 [Fluorene]

>  <Span>
347.3

$$$$
>  <compound>
c1ccc2c(c1)-c1cccc3cccc-2c13 [Fluoranthene]

>  <Span>
305.9

$$$$
>  <compound>
c1ccc2ccccc2c1 [Naphthalene]

>  <Span>
361.2

$$$$
>  <compound>
C1=Cc2cccc3cccc1c23 [Acenaphthylene]

>  <Span>
357.1

$$$$
>  <compound>
c1ccc2cc3c(cc2c1)-c1cccc2cccc-3c12 [Benzo[k]fluoranthene]

>  <Span>
261.5

$$$$
>  <compound>
c1ccc2cc3ccccc3cc2c1 [Anthracene]

>  <Span>
349.4

$$$$
>  <compound>
c1cc2c3c(cccc3c1)CC2 [Acenaphthene]

>  <Span>
353.9

$$$$
>  <compound>
c1ccc2c(c1)cc1ccc3cccc4ccc2c1c34 [Benzo[a]pyrene]

>  <Span>
187.5

$$$$

====

# test-name: Loading kinetics of silicone micro-O-rings from methanol PAH solution (GC-MS/MS)
# Assay type: physicochemical
# protocol-conditions: one-phase association fit, micro-O-ring absorption
This section presents molecules with their documented Span Value values.
measured-property: Span Value

>  <molecule>
c1ccc2ccccc2c1 [Naphthalene]

>  <value>
0.7013

$$$$
>  <molecule>
c1ccc2cc3c(cc2c1)-c1cccc2cccc-3c12 [Benzo[k]fluoranthene]

>  <value>
0.1081

$$$$
>  <molecule>
Cc1cccc2ccccc12 [1-Methylnaphthalene]

>  <value>
0.8912

$$$$
>  <molecule>
C1=Cc2cccc3cccc1c23 [Acenaphthylene]

>  <value>
0.6656

$$$$
>  <molecule>
c1ccc2cc3ccccc3cc2c1 [Anthracene]

>  <value>
0.255

$$$$
>  <molecule>
c1ccc2c(c1)cc1ccc3cccc4ccc2c1c34 [Benzo[a]pyrene]

>  <value>
0.1047

$$$$
>  <molecule>
c1ccc2c(c1)Cc1ccccc1-2 [Fluorene]

>  <value>
0.7821

$$$$
>  <molecule>
c1ccc2c(c1)-c1cccc3cccc-2c13 [Fluoranthene]

>  <value>
0.3327

$$$$
>  <molecule>
c1ccc2c(c1)ccc1ccccc12 [Phenanthrene]

>  <value>
0.2434

$$$$
>  <molecule>
c1cc2c3c(cccc3c1)CC2 [Acenaphthene]

>  <value>
0.8224

$$$$
